Quick reference for polymerase ribozyme fitness (log ratio) among some variants
B1: TPR t1 (parent)
chain: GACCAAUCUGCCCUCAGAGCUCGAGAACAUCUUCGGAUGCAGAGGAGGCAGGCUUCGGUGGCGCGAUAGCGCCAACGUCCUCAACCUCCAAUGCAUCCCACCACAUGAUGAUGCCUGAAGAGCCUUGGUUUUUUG

- Variants of: B1
- Assay notes: polymerase ribozyme fitness, log enrichment relative to wild type (log ratio); higher = more active; in vitro selection for triplet polymerase activity

>  <Variant annotation>
C4U A43U C88U U92G

>  <polymerase ribozyme fitness (log ratio)>
-2.04

$$$$
>  <Variant annotation>
C8A G69U C88G G128C

>  <polymerase ribozyme fitness (log ratio)>
-3.18

$$$$
>  <Variant annotation>
C20U C28A G60A A121C

>  <polymerase ribozyme fitness (log ratio)>
-2.44

$$$$
>  <Variant annotation>
C12U A18C

>  <polymerase ribozyme fitness (log ratio)>
-1.45

$$$$
>  <Variant annotation>
C11U C20A G57A C62U U87A

>  <polymerase ribozyme fitness (log ratio)>
-4.19

$$$$
>  <Variant annotation>
A5C A16G C20U A43G A121G

>  <polymerase ribozyme fitness (log ratio)>
-0.652

$$$$
>  <Variant annotation>
C62A C82A

>  <polymerase ribozyme fitness (log ratio)>
-0.246

$$$$
>  <Variant annotation>
A27U C62A C101U A119U

>  <polymerase ribozyme fitness (log ratio)>
-5.17

$$$$
>  <Variant annotation>
A105C

>  <polymerase ribozyme fitness (log ratio)>
-2.22

$$$$
>  <Variant annotation>
G45U C114U

>  <polymerase ribozyme fitness (log ratio)>
-3.17

$$$$
>  <Variant annotation>
U55C C62U C98A

>  <polymerase ribozyme fitness (log ratio)>
-6.18

$$$$
>  <Variant annotation>
C56A C64U C124U G128A

>  <polymerase ribozyme fitness (log ratio)>
-1.71

$$$$
>  <Variant annotation>
C115A G128U U133A

>  <polymerase ribozyme fitness (log ratio)>
-3.05

$$$$
>  <Variant annotation>
U33A G69U

>  <polymerase ribozyme fitness (log ratio)>
-0.74

$$$$
>  <Variant annotation>
A43G C85G

>  <polymerase ribozyme fitness (log ratio)>
-2.89

$$$$
>  <Variant annotation>
C12U U87C

>  <polymerase ribozyme fitness (log ratio)>
1.04

$$$$
>  <Variant annotation>
C20U C40G A46C G60U A75C

>  <polymerase ribozyme fitness (log ratio)>
-4.1

$$$$
>  <Variant annotation>
C114A U129G U130C

>  <polymerase ribozyme fitness (log ratio)>
-2.79

$$$$
>  <Variant annotation>
G23A G45A

>  <polymerase ribozyme fitness (log ratio)>
-5.16

$$$$
>  <Variant annotation>
A37U G57A C89G

>  <polymerase ribozyme fitness (log ratio)>
-3.91

$$$$
>  <Variant annotation>
A75G C123U

>  <polymerase ribozyme fitness (log ratio)>
1.55

$$$$
>  <Variant annotation>
A18U A41C C88U U92C C104U A111C U125G U132C

>  <polymerase ribozyme fitness (log ratio)>
-4.68

$$$$
>  <Variant annotation>
C53U G60A C73A U106G C123G U126A

>  <polymerase ribozyme fitness (log ratio)>
-2.6

$$$$
>  <Variant annotation>
G113U

>  <polymerase ribozyme fitness (log ratio)>
-2.64

$$$$
>  <Variant annotation>
G61C C114A

>  <polymerase ribozyme fitness (log ratio)>
-2.18

$$$$
>  <Variant annotation>
G44U A121U

>  <polymerase ribozyme fitness (log ratio)>
0.755

$$$$
